meta.source: patent US20220265629A1

- assaySummary: Single ascending oral dose study in healthy volunteers: plasma pharmacokinetics
- Assay type: in vivo, human
- assayConditions: human, plasma, oral, 50 mg, 24 Hours Postdose; 50 mg; read-out: Plasma concentration, Mean
readoutName: concentration at 24 h (ng/mL)
Numeric only. Scale: ng/mL

QUERY: # input compound: Cn1cc(S(=O)(=O)[C@@](C)(F)C2CCN(C(=O)Nc3ccon3)CC2)c(C(F)F)n1 ; wanted: its concentration at 24 h
RESULT: 178

----------
- assaySummary: Food effect cross-over study, 200 mg (25 mg tablets), healthy volunteers: plasma pharmacokinetics
- Format: in vivo, human
- assayConditions: human, plasma, po, single 200 mg oral dose, Fed (N = 10), read-out: T1/2, z, Mean (converted)
readoutName: half-life (h)
Numeric only. Scale: h

QUERY: # input compound: Cn1cc(S(=O)(=O)[C@@](C)(F)C2CCN(C(=O)Nc3ccon3)CC2)c(C(F)F)n1 [Compound I] ; wanted: its half-life
RESULT: 13.8
